Provide the recorded growth for the entries that follow.
system: CAKI-1 renal; assay: NCI-60 one-dose screen, 48 h (100 = growth as untreated, 0 = no growth, -100 = all killed); details: 10 µM unless noted
This is part of a sample that, as a whole, favours compounds with a hit. Of some 83,000 tested, about 20% had one in any assay. Active and inactive are the calls of the source. How the source made its calls: active means growth percent below 10; inactive means the rest.

Inquiry: # assay system CAKI-1 renal: give growth of COCCNc1ccc2c3c(cccc13)C(=O)N(CCN(C)C)C2=O
Reply text: -21.4% (active)

Inquiry: # assay system CAKI-1 renal: give growth of C=C1c2nc3ccccc3n2C=C(c2ccc(Cl)cc2)N1Cc1ccc(OC)cc1
Reply text: 85.7% (inactive)

Inquiry: # assay system CAKI-1 renal: give growth of C=CC(=O)Nc1cccc(-c2nc(SC)nc(Nc3ccccc3OC)c2C#N)c1
Reply text: 56.6% (inactive)

Inquiry: # assay system CAKI-1 renal: give growth of OC(c1cc2cc(Cl)c(Cl)cc2c2cc(C(F)(F)F)ccc12)C1CCCCN1 (stereo not drawn)
Reply text: -46.4% (active)

Inquiry: # assay system CAKI-1 renal: give growth of COc1ccc2c(c1)C(=O)/C(=C/c1cccnc1)CC2
Reply text: 90.8% (inactive)

Inquiry: # assay system CAKI-1 renal: give growth of CSc1nc(NCCO)c(C#N)c(-c2cccc([N+](=O)[O-])c2)n1
Reply text: 83.9% (inactive)

Inquiry: # assay system CAKI-1 renal: give growth of CSc1nc(NCc2ccccc2)c(C#N)c(-c2cccc([N+](=O)[O-])c2)n1
Reply text: 75.4% (inactive)

Inquiry: # assay system CAKI-1 renal: give growth of Cc1cc(Nc2ccc(C)c(Cl)c2)n2nc(C(F)(F)F)nc2n1
Reply text: -35.5% (active)

Data origin, for the record: PubChem BioAssay (NCI)
